Biological target: TEAD2 (Homo sapiens (Human))
Assay: TEAD lipid pocket TR-FRET (Lipid HTRF) probe competition assay
Assay type: binding
Settings: 4 hours incubation with compound; read-out: Lipid HTRF TEAD2 IC50
recorded-endpoint: IC50 (nM)
Numbers only; they are read as nM.

Some compounds with known IC50 results, for comparison:
- C=C(CNc1cc(-c2ccc(OC(F)(F)F)cc2)c2c(c1C#N)CCO2)C(=O)N(C)O: 1700
- C=C(CNc1cc(-c2cc(C(C)C)cs2)c2c(c1C#N)CCO2)C(=O)O: 40
- C=C(CNc1cc(-c2ccc(OC(F)(F)F)cc2)c2c(c1CO)CCO2)C(N)=O: 30

Query string: Please give measured IC50 of the following entry: C=C(CNc1cc(-c2ccc(S(F)(F)(F)(F)F)cc2)c2c(c1C#N)CCO2)C(=O)O
Result string: 170

Query string: Kindly indicate its recorded IC50. Item: C=C(CNc1cc(-c2ccc(S(F)(F)(F)(F)F)cc2)c2c(c1C#N)CCO2)C(=O)NO
Result string: 30

Query string: Quickly give me recorded IC50 for [2H]C1([2H])COc2c(-c3ccc(C(C)C)cc3)cc(NCC(=C)C(=O)NO)c(C#N)c21
Result string: 10

Query string: Annotate the compound C=C(CNc1cc(-c2ccc(OC(F)(F)F)cc2)c2ncsc2c1C#N)C(=O)NO with its measured IC50.
Result string: 10

Query string: Look up and report measured IC50 for this entry: C=C(CNc1cc(-c2ccc(S(F)(F)(F)(F)F)cc2)c2c(c1C#N)CCO2)C(N)=O
Result string: 220

Query string: Specify IC50 for C=C(CNc1cc(-c2nc(C(C)C)cs2)c2c(c1C#N)CCO2)C(=O)NO and stop.
Result string: 860

Query string: Report IC50 for [2H]C1([2H])COc2c(-c3ccc(C(C)C)cc3)cc(NCC(=C)C(=O)O)c(C#N)c21
Result string: 40

----------
Biological target: TEAD3 YAP50-100 (Homo sapiens (Human), UniProt Q99594)
Sequence (Q99594 218-435): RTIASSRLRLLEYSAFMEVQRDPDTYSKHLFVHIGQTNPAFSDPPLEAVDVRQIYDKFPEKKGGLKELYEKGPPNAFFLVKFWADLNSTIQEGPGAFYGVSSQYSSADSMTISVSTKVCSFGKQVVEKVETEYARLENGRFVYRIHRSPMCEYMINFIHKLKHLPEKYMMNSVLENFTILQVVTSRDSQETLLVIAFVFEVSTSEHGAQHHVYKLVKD
Assay: TEAD-YAP protein-protein interaction HTRF assay
Conditions: TEAD3 YAP50-100 HTRF combined EC50, 30 mins incubation with compound
Let's look at some compounds and their measured pEC50.
Notebook: values listed as pEC50 are -log10 of the concentration (mol/L).

Consider the following illustrative entries.
* C=C(CNc1cc(-c2ccc(C(C)C)cc2)c2c(c1S(C)(=O)=O)CCO2)C(=O)O | 4.77
* C=C(CNc1cc(-c2ccc(C(C)C)cc2)c2c(c1C#N)CCO2)C(C)=O | 6.70

Query string: Supply recorded pEC50 for C=C(CNc1cc(-c2ccc(C(C)C)cc2)c2c(c1CO)CCO2)C(N)=O here.
Result string: 4.66

Query string: Please report the measured pEC50 for C=C(CNc1cc(-c2ccc(C(C)C)cc2)c2c(c1C#N)CCO2)C(N)=O
Result string: 4.89

Query string: Identify measured pEC50 corresponding to C=C(CNc1cc(-c2ccc(C(F)(F)F)cc2)c2c(c1C#N)CCO2)C(=O)O
Result string: 4.96

----------
Form field: pIC50 (one value per entry).
Target: TEAD2 (Homo sapiens (Human), UniProt Q15562)
Sequence (Q15562 whole entry): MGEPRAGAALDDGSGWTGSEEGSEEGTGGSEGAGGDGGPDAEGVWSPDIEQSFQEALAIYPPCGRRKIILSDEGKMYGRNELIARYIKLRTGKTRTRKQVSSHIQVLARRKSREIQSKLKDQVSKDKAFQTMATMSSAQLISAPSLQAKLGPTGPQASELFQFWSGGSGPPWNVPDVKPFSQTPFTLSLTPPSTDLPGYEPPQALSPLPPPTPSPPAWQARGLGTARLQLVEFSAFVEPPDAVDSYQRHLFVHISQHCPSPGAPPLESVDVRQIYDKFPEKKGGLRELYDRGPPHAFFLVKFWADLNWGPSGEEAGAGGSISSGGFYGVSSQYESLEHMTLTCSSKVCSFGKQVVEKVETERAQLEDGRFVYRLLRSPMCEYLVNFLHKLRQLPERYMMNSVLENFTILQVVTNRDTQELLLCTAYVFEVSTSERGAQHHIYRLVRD
Test: TEAD lipid pocket TR-FRET (Lipid HTRF) probe competition assay
Assay type: binding
Conditions: 30 mins incubation with compound; read-out: Lipid HTRF TEAD2 IC50
Field pIC50 (float): negative decimal logarithm of the concentration in molar.

These solved cases illustrate the format of a correct answer.
- C=C(CNc1cc(-c2ccc(C(C)C)cc2)c2c(c1CO)CCO2)C(=O)NO: 6.92
- C=C(CNc1cc(-c2ccc(C(C)C)cc2F)c2c(c1C#N)CCO2)C(=O)O: 7.00
- C=C(CNc1cc(-c2ccc(C(C)C)cc2)c2c(c1C#N)CCO2)C(=O)N(C)C: 5.46
- C=C(CNc1cc(-c2ccc(C(C)C)cc2)c2c(c1C#N)CCO2)C(C)=O: 7.10
- C=C(CNc1cc(-c2ccc(C(C)C)cn2)c2c(c1C#N)CCO2)C(=O)O: 5.57

Query string: Find pIC50 for C=C(CNc1cc(-c2ccc(C(C)C)cc2)c2c(c1CO)CCO2)C(N)=O on TEAD2 (Homo sapiens (Human), UniProt Q15562) and write it down.
Result string: 6.66

Query string: Write down measured pIC50 (TEAD2 (Homo sapiens (Human), UniProt Q15562)) for this compound. C=C(CNc1cc(-c2ccc(C(C)C)cc2)c2c(c1C#N)CCO2)B(O)O
Result string: 5.57

Query string: State, for TEAD2 (Homo sapiens (Human), UniProt Q15562), measured pIC50 of the compound listed here: C=C(CNc1cc(-c2c(F)cc(C(C)C)cc2F)c2c(c1C#N)CCO2)C(=O)O
Result string: 6.46

----------
Target: TEAD4 YAP50-100 (Homo sapiens (Human), UniProt Q15561)
Sequence (Q15561 217-434): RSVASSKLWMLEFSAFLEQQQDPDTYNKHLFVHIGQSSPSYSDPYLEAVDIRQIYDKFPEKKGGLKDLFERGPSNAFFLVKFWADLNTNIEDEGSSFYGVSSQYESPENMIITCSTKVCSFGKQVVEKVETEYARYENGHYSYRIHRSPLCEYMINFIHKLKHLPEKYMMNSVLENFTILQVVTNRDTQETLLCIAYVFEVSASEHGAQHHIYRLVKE
Experiment: TEAD-YAP protein-protein interaction HTRF assay
Conditions: TEAD4 YAP50-100 HTRF combined EC50, 30 mins incubation with compound
Criterion: EC50 strictly less than 100 nM. Met: condition met. Not met: condition not met.

* C=C(CNc1cc(-c2ccc(C(F)(F)F)cc2)c2c(c1C#N)CCO2)C(=O)O | condition not met

Query string: Please indicate whether the reported EC50 of C=C(CNc1cc(-c2c(F)cc(C(C)C)cc2F)c2c(c1C#N)CCO2)C(=O)O is strictly below 100 nM.
Result string: condition not met

Query string: Please let me know if C=C(CNc1cc(-c2ccc(C(C)C(F)(F)F)cc2)c2c(c1C#N)CCO2)C(=O)O (single isomer, unassigned) [Enantiomer C from Example 16] shows EC50 below 100 nM.
Result string: condition met

Query string: Given C=C(CNc1cc(-c2ccc(C(C)C)cc2)c2c(c1C#N)CCO2)B(O)O , is recorded EC50 strictly lower than 100 nM?
Result string: condition not met

Query string: In the record for C=C(CNc1cc(-c2ccc(C(C)(F)F)cc2)c2c(c1C#N)CCO2)C(=O)O , is EC50 less than 100 nM?
Result string: condition not met

Query string: Lab note: confirm whether the reported EC50 for this compound is below 100 nM, equality not counting. compound: C=C(CNc1cc(-c2ccc(C(C)C)cc2)c2c(c1C#N)CCO2)C(=O)O
Result string: condition met

Query string: Hello, is EC50 of the following compound strictly smaller than 100 nM? C=C(CNc1cc2c(c(-c3ccc(C(C)C)cc3)c1)OCC2)C(=O)O
Result string: condition met

Query string: Dear colleague, could you confirm whether EC50 of C=C(CNc1cc(-c2ccc(C(C)C)cc2)c2c(c1C(N)=O)CCO2)C(=O)O falls below 100 nM? Thanks.
Result string: condition not met

----------
Let's look at some compounds and their measured pEC50.
Target: TEAD4 YAP50-100 (Homo sapiens (Human), UniProt Q15561)
Assay: TEAD-YAP protein-protein interaction HTRF assay
Details: TEAD4 YAP50-100 HTRF combined EC50, 30 mins incubation with compound
Here pEC50 is given on a logarithmic scale as minus log10 of the concentration in mol/L.

The cases that follow already have their pEC50 on record.
- C=C(CNc1cc(-c2ccc(OC(F)(F)F)cc2)c2c(c1C#N)CCO2)C(=O)O: 7.22
- C=C(CNc1cc(-c2ccc(C(C)C)cc2)c2c(c1CO)CCO2)C(N)=O: 6.74
- C=C(CNc1nc2c(c(-c3ccc(C(C)C)cc3)n1)OCC2)C(=O)O: 7.40
- C=C(CN(C)c1cc(-c2ccc(C(C)C)cc2)c2c(c1C#N)CCO2)C(=O)O: 6.37
- C=C(CNc1cc(-c2ccc(C(C)C)cc2)c2c(c1CO)CCO2)C(=O)O: 6.12

Query string: Quote pEC50 reported for C=C(CNc1cc(-c2ccc(C(C)C)cc2)c2c(c1CO)CCO2)C(=O)NO please.
Result string: 6.05

Query string: Look up and report measured pEC50 for this entry: C=C(CNc1cc(-c2ccc(C(C)C)cc2)c2c(c1C#N)CCO2)C(=O)N(C)C
Result string: 6.00

----------
Target: TEAD1 (Homo sapiens (Human), UniProt P28347)
Sequence (P28347 whole entry, species assumed): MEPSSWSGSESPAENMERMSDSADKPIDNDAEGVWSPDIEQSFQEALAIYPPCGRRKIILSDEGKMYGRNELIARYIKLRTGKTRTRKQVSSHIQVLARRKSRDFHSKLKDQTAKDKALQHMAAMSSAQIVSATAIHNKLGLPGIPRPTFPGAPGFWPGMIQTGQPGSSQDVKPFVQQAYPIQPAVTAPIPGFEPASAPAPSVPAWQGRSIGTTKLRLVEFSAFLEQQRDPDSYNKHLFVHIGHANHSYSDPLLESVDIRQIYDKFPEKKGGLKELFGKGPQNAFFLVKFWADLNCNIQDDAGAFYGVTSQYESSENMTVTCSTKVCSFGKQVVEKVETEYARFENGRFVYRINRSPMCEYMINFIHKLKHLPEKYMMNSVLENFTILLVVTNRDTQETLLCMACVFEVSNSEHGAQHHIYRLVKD
Assay: TEAD lipid pocket TR-FRET (Lipid HTRF) probe competition assay
Type: binding
Conditions: 30 mins incubation with compound; read-out: Lipid HTRF TEAD1 IC50
recorded-endpoint: log10 of IC50 (log10 of the value in nM)
Annotation: log10 of IC50, nM basis.

• C=C(CNc1cc2c(c(-c3ccc(C(C)C)cc3)c1)OCC2)C(N)=O [Compound 2] = 2.77
• C=C(CNc1cc(-c2ccc(C(C)C)cc2)c2c(c1C#N)CCO2)B(O)O [Compound 10] = 3.80
• C=C(CNc1cc(-c2ccc(C(C)C)cc2F)c2c(c1C#N)CCO2)C(=O)O [Compound 30] = 1.70
• C=C(CNc1cc(-c2ccc(OC(F)(F)F)cc2)c2c(c1C#N)CCO2)C(=O)O [Compound 18] = 1.48
• C=C(CNc1cc(-c2ccc(C(C)C)cc2)c2c(c1CO)CCO2)C(=O)O [Compound 12] = 3.18

Query string: Using known records, supply log10 of IC50 for C=C(CNc1cc(-c2ccc(C(C)C)cc2)c2c(c1C#N)CCO2)C(=O)O [Compound 3]
Result string: 1.30

Query string: Complete the entry with log10 of IC50 for C=C(CNc1cc(-c2ccc(C(C)C)cn2)c2c(c1C#N)CCO2)C(=O)O [Compound 47]
Result string: 3.34

Query string: Identify log10 of IC50 associated with the compound C=C(CNc1cc(-c2ccc(C(C)C)cc2)c2c(c1C#N)CCO2)C(C)=O [Compound 11]
Result string: 2.26

Query string: Complete the entry with log10 of IC50 for C=C(CNc1cc(-c2ccc(C(C)C)cc2)c2c(c1C#N)CCO2)C(=O)OC [Compound 8]
Result string: 1.85

Query string: Let me know recorded log10 of IC50 for C=C(CN(C)c1cc(-c2ccc(C(C)C)cc2)c2c(c1C#N)CCO2)C(=O)O [Compound 7] , thanks.
Result string: 2.73

Query string: Please give the documented log10 of IC50 of C=C(CNc1cc(-c2ccc(C(F)(F)F)cc2)c2c(c1C#N)CCO2)C(=O)O [Compound 15]
Result string: 1.70

Query string: Identify log10 of IC50 associated with the compound C=C(CNc1cc(-c2c(F)cc(C(C)C)cc2F)c2c(c1C#N)CCO2)C(=O)O [Compound 28]
Result string: 2.84

Query string: Supply measured log10 of IC50 of C=C(CNc1cc(-c2ccc(C(C)C)cc2)c2c(c1C#N)CCO2)C(N)=O [Compound 4] in your reply.
Result string: 2.51

Query string: Please give measured log10 of IC50 of the following entry: C=C(CNc1cc(-c2ccc(C(C)(F)F)cc2)c2ncsc2c1C#N)C(=O)O [Compound 24]
Result string: 2.20

Query string: // Input: C=C(CNc1cnc(OC)c(/C=C/[C@H]2CC[C@H](C(F)(F)F)CC2)c1)C(=O)O [Compound 25] . Output its log10 of IC50 only.
Result string: 2.76

Query string: Consider the compound C=C(CNc1cc(-c2ccc(C(C)C)cc2)c2c(c1C#N)CCO2)C(=O)N(C)C [Compound 6] . State its measured log10 of IC50.
Result string: 3.04

Query string: Kindly indicate its recorded log10 of IC50. Item: C=C(CNc1cc(-c2ccc(C(C)C)cc2)c2c(c1C#N)CCO2)C(=O)NO [Compound 9]
Result string: 2.45

Query string: Hello, please tell me recorded log10 of IC50 for this one: C=C(CNc1cc2c(c(-c3ccc(C(C)C)cc3)c1)OCC2)C(=O)O [Compound 1]
Result string: 2.34

Query string: Retrieve log10 of IC50 measured for C=C(CNc1nc(-c2ccc(C(C)C)cc2)c2c(c1C#N)CCO2)C(=O)O [Compound 22] and print it.
Result string: 1.95

Query string: Tell me its log10 of IC50 given C=C(CNc1cc(-c2ccc(C(C)C)cc2)c2c(c1S(C)(=O)=O)CCO2)C(=O)O [Compound 50] as the entry.
Result string: 2.87

Query string: Write down log10 of IC50 measured for item C=C(CNc1cc(-c2ccc(C(C)C)cc2)c2c(c1CO)CCO2)C(=O)NO [Compound 14]
Result string: 2.72

Query string: Identify the reported log10 of IC50 for the following entry. C=C(CNc1cc(-c2ccc(C(C)C)cc2)c2c(c1CO)CCO2)C(N)=O [Compound 13]
Result string: 2.89
